- System: PC12 cells
- assay-summary: NGF-induced neuronal differentiation (neurite outgrowth) of PC12 cells
- Type: cell-based
- condition-summary: Rattus norvegicus, PC-12, 72 h; 50 ng/ml NGF, three days; read-out: IC50, block of appearance of neuritic processes in PC12 cells exposed to NGF
pIC50: −log10 of the molar value.
readout-name: pIC50

Kindly state the measured pIC50 obtained for COC(=O)[C@@]1(O)C[C@H]2O[C@]1(C)n1c3ccccc3c3c4c(c5c6ccccc6n2c5c31)C(=O)NC4 (single isomer, unassigned) [K252a] with PC12 cells.
~7.40

Origin of measurements: patent US6271242A
